# experimentalProtocol: AUC (last) in Sprague-Dawley rat at 2 mg/kg, iv measured for 24 hrs by LC-MS/MS analysis
# Type: ADME, organism-based
# conditionNotes: in vivo
measurementType: AUC(0-t) at 24 h (ng·h/mL)
Write the number in ng·h/mL without appending the unit.

Problem: Quick check: AUC(0-t) at 24 h of C[C@@H](Oc1ccc2[nH]nc(-c3ccc(N4CC5(C4)CN(S(C)(=O)=O)C5)nc3)c2c1)c1c(Cl)cncc1Cl ?
Result: 1730

---

# experimentalProtocol: Thermodynamic solubility in FaSSIF
# Assay type: ADME
# conditionNotes: read-out: Therm_solubility
measurementType: solubility thermodynamic (µM)
Write the number in µM without appending the unit.

Problem: Quick check: solubility thermodynamic of C[C@@H](Oc1ccc2[nH]nc(-c3ccc(N4CC5(C4)CN(S(C)(=O)=O)C5)nc3)c2c1)c1c(Cl)cncc1Cl ?
Result: 20
